Below, each entry is listed alongside its reported growth.
Tested on: SNB-75 CNS
Experiment: NCI-60 one-dose screen, 48 h (100 = growth as untreated, 0 = no growth, -100 = all killed)
Settings: 10 µM unless noted
About 83,000 compounds went through this panel and 20% of them were active in at least one assay; those are over-represented in the sample as a whole.
Measured metric: growth (%)

- COc1cc(/C=C2\C(=N)N=C(SCc3nc4ccccc4[nH]3)NC2=O)ccc1O: 102
- CCCCCCCCc1ccc(C(=O)Nc2cccc(P(=O)(O)O)c2)cc1: 99.9
- CN1CCc2c(sc3ncnc(N/N=C/c4ccc(Cl)cc4Cl)c23)C1: -50.4
- COCOc1cc2c(=O)c(C)c(C(=O)N[C@@H](Cc3ccccc3)C(O)C(=O)NCc3ccccc3)oc2cc1OC (stereo partly drawn): 3.85
- Cc1ccc(C(=O)NN2C(=O)/C(=C/C=C/c3ccc([N+](=O)[O-])o3)SC2=S)cc1: -85
- CN(C)c1nc(NCCNS(=O)(=O)c2ccc(C3=Nc4c(N)nc(N)nc4NC(c4ccc(C(F)(F)F)cc4)C3)cc2)nc(Nc2ccc(F)cc2)n1 (stereo not drawn): 31.7
- CN(C)CCn1c2ccccc2c2nc3cc4ccccc4cc3nc21: 43
- C#CCOc1cc(N(CC)CC)ccc1C(C(=O)NC(C)(C)C)N(C(=O)C1CCc2cc(F)ccc2O1)c1ccc(Br)cc1 (stereo not drawn): 98.9
- Cc1ccc(S(=O)(=O)c2nc(S(=O)(=O)c3ccc(C)cc3)c(Cl)s2)cc1: 108
- CC1(C)CC[C@]2(C(=O)O)CC[C@]3(C)C(=CCC4[C@@]5(C)C[C@@H](O)[C@@H]6OC(c7ccccc7F)OC[C@@]6(C)C5CC[C@]43C)C2C1 (stereo partly drawn): 29.1
- CCCCCCCCc1ccc(S(=O)(=O)Nc2ccc(CC)cc2C(=O)O)cc1: 106
- C[C@H](Nc1nc(NCCc2ccccc2)nc2ccccc12)c1ccccc1: -44.6
- Cc1ccc2c(N)c(C(=O)Nc3ccc(-c4ccccc4)cc3)sc2n1: 53.8
- Nc1cc2ccccc2c(=O)n1NC(=O)c1ccc(I)cc1: 70
- COc1cc2oc(-c3cccc(C(=O)Nc4ccc(Cl)cc4)c3)cc(=O)c2c(OCC(=O)N[C@@H](Cc2ccccc2)C(=O)O)c1OC: 112
- CN(C)c1ccnc(CNCCSC2(c3ccccc3)c3ccccc3C=Cc3ccccc32)c1: -10.9
- COc1ccc(-c2nc(SCC(C)C)nc(NCCc3c[nH]c4ccccc34)c2C#N)cc1: 74.1
- COc1ccc(/C=C/c2n(Cc3ccc4ccccc4c3)c3ccccc3[n+]2Cc2ccc3ccccc3c2)cc1: -95.7

###

Test system: SF-295 CNS
Assay: NCI-60 one-dose screen, 48 h (100 = growth as untreated, 0 = no growth, -100 = all killed)
Conditions: 10 µM unless noted
Compounds without any hit were thinned out: in the full panel of roughly 83,000, 20% have a hit.
Please use Criterion met whenever growth is not below 30%, and Criterion not met whenever it is.

* Cn1cc(-c2cc(N)n3nc(-c4c[nH]c5ccccc45)cc3n2)c2cccnc21 | Criterion not met
* O=C(Nc1ccccc1)N1CCN(c2cc(-c3cn(-c4ccccc4)nc3-c3cccc(O)c3)ccn2)CC1 | Criterion met
* COc1ccc([C@H](C)Nc2nc(Cl)nc3ccccc23)cc1 | Criterion not met
* NS(=O)(=O)c1ccc(N=Nc2c(O)n(CC(=O)Nc3ccccc3Cl)c3ccccc23)cc1 | Criterion not met
* CC(=O)Oc1ccc(/C=C/C(=O)N[C@@H](Cc2ccccc2)C(O)C(=O)NCc2ccccc2)cc1OC(C)=O (some centres undefined) | Criterion met
* Cc1ccc(C2CC(c3ccc(S(=O)(=O)NCCNc4nc(Nc5ccc(F)cc5)nc(N(C)C)n4)cc3)=Nc3c(N)nc(N)nc3N2)cc1 (centres undefined) | Criterion met
* CCOC(=O)C1=C(N)N(c2ccccc2)C2=C(C(=O)CC(C)(C)C2)C1c1ccc(N2CCOCC2)cc1 (centres undefined) | Criterion met
* COc1ccc2cc([C@H](C)C(=O)N/N=C/c3ccc(Br)cc3)ccc2c1 | Criterion met
* COc1ccc(-c2nnc3ccc(N/N=C/c4ccc(C)cc4)nn23)cc1 | Criterion met
* COc1ccc(C(=O)/C=C/c2cccc3ccccc23)cc1S(N)(=O)=O | Criterion not met
* O=C(CN1C(=O)/C(=C/c2ccccc2F)SC1=S)N1CCOCC1 | Criterion met
* Cc1c(C(=O)NNC(=O)c2ccc(Cl)cc2)nnn1-c1ccc(Cl)cc1 | Criterion met
* O=C(NNc1nc2cc(F)ccc2n2c(CN3CCCCC3)ccc12)c1cnccn1 | Criterion not met
* C(=C\c1cc(/C=C/c2ccccc2)c2ccccc2n1)/c1ccccc1 | Criterion met
* CC1CCCCN1CCCNC(=O)N/C(N)=N/c1nc2ccccc2s1 (centres undefined) | Criterion not met
* CCCSc1nc(Nc2ccc(S(N)(=O)=O)cc2)c(C#N)c(-c2cc(OC)c(OC)c(OC)c2)n1 | Criterion not met
* Cc1ccc(S(=O)(=O)c2nc(S(=O)(=O)c3ccc(C)cc3)c(N3CCN(C)CC3)s2)cc1 | Criterion met
* O=C(NN1C(=O)/C(=C/C=C/c2ccc([N+](=O)[O-])o2)SC1=S)c1ccccc1O | Criterion not met
